Tested on: NCI-H23 lung
Experiment: NCI-60 one-dose screen, 48 h (100 = growth as untreated, 0 = no growth, -100 = all killed)
Details: 10 µM unless noted
This is part of a sample that, as a whole, favours compounds with a hit. Of some 83,000 tested, about 20% had one in any assay.
PROPERTY: growth (%)
# value in %; strip the unit string

Q. Fill in the blank: the reported growth of `O=C(CCCCCCN1CC(=O)N2[C@@H](C3CC3)c3[nH]c4ccccc4c3C[C@H]2C1=O)NO` is ____.
A. 66.4

Q. Fill in the blank: the reported growth of `NNc1nnc2nc(Nc3ccccc3)nc(Nc3ccc(S(N)(=O)=O)cc3)n12` is ____.
A. 102

Q. Fill in the blank: the reported growth of `NS(=O)(=O)c1nnc(/N=C/c2c(O)[nH]c3ccccc23)s1` is ____.
A. 96.3

----------
Test system: SF-268 CNS
Experiment: NCI-60 one-dose screen, 48 h (100 = growth as untreated, 0 = no growth, -100 = all killed)
Conditions: 10 µM unless noted
Procedure: Cells are grown in 96 well plates and exposed to the test compound for 48 hours. Compounds are tested at a single concentration, which is 10^-5 M for most compounds. The reported endpoint is percent growth (GI% or GIPRCNT), where numbers from 0 - 100% represent growth inhibition, and numbers from -100% - 0 represent cell death. For example, a value of 40 represents 60% growth inhibition. A value of 0 means no net growth occurred over the course of the experiment. […]
About 83,000 compounds went through this panel and 20% of them were active in at least one assay; those are over-represented in the sample as a whole.
PROPERTY: growth (%)
# value in %; strip the unit string

Q. Fill in the blank: the reported growth of `CCOC(=O)C(=O)Nc1ccc2c(ccn2C(=O)c2cccc(F)c2)c1` is ____.
A. 99

Q. Fill in the blank: the reported growth of `O=C1C(SCc2ccccc2)=C(Cl)CN1c1ccc(Cl)cc1` is ____.
A. 108

Q. Fill in the blank: the reported growth of `O=C(N/N=C\c1ccc([N+](=O)[O-])cc1)c1ccc2nc(-c3ccc(Br)cc3)[nH]c2c1` is ____.
A. 44.7

----------
Tested on: CAKI-1 renal
Assay: NCI-60 one-dose screen, 48 h
Details: 10 µM unless noted
About 83,000 compounds went through this panel and 20% of them were active in at least one assay; those are over-represented in the sample as a whole. Active and inactive are the calls of the source. Rule for the calls: active = growth percent below 10; inactive = the rest.
Use one of these outcomes when replying: 1.0 for active, 0.0 for inactive

Q. Assay result, entry CC1=Cc2ccccc2OC12C=Cc1ccccc1O2 (stereo unspecified) — outcome?
A. 0.0

Q. Assay result, entry `C#C[C@]1(O)CC[C@H]2[C@@H]3CC=C4c5sc(Nc6ncccc6C)nc5CC[C@]4(C)[C@H]3CC[C@@]21C` — outcome?
A. 1.0

Q. Assay result, entry `CCN(CC)c1ccc(/C=N/NC(=O)c2ccc(NS(C)(=O)=O)cc2)cc1` — outcome?
A. 0.0

Q. Assay result, entry COc1ccc(C2CC(c3cccc(OCCCCOc4cccc(C5=NN(C(C)=O)C(c6ccc(OC)cc6)C5)c4)c3)=NN2C(C)=O)cc1 (stereo unspecified) — outcome?
A. 0.0

Q. Assay result, entry `COc1ccc(-c2nc(C#N)c(N3CCC(S(=O)(=O)N4CCOCC4)CC3)o2)cc1` — outcome?
A. 0.0

Q. Assay result, entry `O=C(CCCCCCN1CC(=O)N2[C@@H](c3ccc(Cl)s3)c3[nH]c4ccccc4c3C[C@H]2C1=O)NO` — outcome?
A. 0.0

----------
Tested on: KM12 colon
Experiment: NCI-60 one-dose screen, 48 h (100 = growth as untreated, 0 = no growth, -100 = all killed)
Conditions: 10 µM unless noted
This is part of a sample that, as a whole, favours compounds with a hit. Of some 83,000 tested, about 20% had one in any assay.
I'd appreciate it if you could supply growth values for the items below.
# value in %; strip the unit string

Q. Fill in the blank: the reported growth of `Cc1ccc(C)c(NC2=C(Cl)C(=O)c3nc(C)ccc3C2=O)c1` is ____.
A. 36.7

Q. Fill in the blank: the reported growth of `Clc1cccc(/C=N/Nc2nc(N/N=C/c3cccc(Cl)c3)nc(N3CCOCC3)n2)c1` is ____.
A. 30.2

Q. Fill in the blank: the reported growth of `O=C(CSc1nc2ccccc2c(=O)n1-c1ccccc1)N/N=C/c1ccc(Oc2ccc(Br)cc2)cc1` is ____.
A. 76.3

Q. Fill in the blank: the reported growth of `Cc1ccc(C(=O)Nc2ccc(CNCCN3CCOCC3)c(C(F)(F)F)c2)cc1C#Cc1cnc2cccnn12` is ____.
A. 1.77

Q. Fill in the blank: the reported growth of `Clc1ccc2[nH]cc(-c3nn4cc(-c5ccncc5)nc4s3)c2c1` is ____.
A. 47.7

Q. Fill in the blank: the reported growth of `NCCNC(=O)c1cccc(COc2ccccc2NC(=O)c2cc(Cl)c(Cl)[nH]2)c1` is ____.
A. 101

----------
Tested on: NCI-H522 lung
Test: NCI-60 one-dose screen, 48 h (100 = growth as untreated, 0 = no growth, -100 = all killed)
Conditions: 10 µM unless noted
The panel holds about 83,000 compounds, 20% with a hit somewhere; the sample as a whole holds those more often.
Cut-off 80% on growth: below means 1, at or above means 0.

Q. Please let me know if CCCCN1C(=O)/C(=c2\sc3n(c2=O)C2C(NN=3)N(CC)C(=O)N2CC)c2cc(C)ccc21 (stereo unspecified) shows growth below 80%.
A. 0

Q. Please let me know if `N#Cc1cnc2ccc(-c3cnc4n[nH]nc4c3)cc2c1N1CCc2cc(F)c(Cl)cc21` shows growth below 80%.
A. 1

Q. Please let me know if CC(=O)N1N=C(c2cc3ccccc3oc2=O)CC1c1cn(-c2ccccc2)nc1-c1ccc(C)cc1 (stereo unspecified) shows growth below 80%.
A. 0

Q. Please let me know if `CN1CCN(c2ccc(Nc3nc(NCCCNS(=O)(=O)c4ccccc4)c4sccc4n3)cc2)CC1` shows growth below 80%.
A. 1

----------
Test system: RPMI-8226 leukemia
Test: NCI-60 one-dose screen, 48 h (100 = growth as untreated, 0 = no growth, -100 = all killed)
Conditions: 10 µM unless noted
This is part of a sample that, as a whole, favours compounds with a hit. Of some 83,000 tested, about 20% had one in any assay.
Cut-off 30% on growth: below means class 1, at or above means class 0.

Q. Please let me know if `COc1cc2oc(-c3cccc(NC(=O)c4cccc([N+](=O)[O-])c4)c3)cc(=O)c2c(OC)c1OC` shows growth below 30%.
A. class 0

Q. Please let me know if `CN1CCN(Cc2ccc(NC(=O)c3cncc(C#Cc4cnc5ccc(OCC(F)F)nn45)c3)cc2C(F)(F)F)CC1` shows growth below 30%.
A. class 1

Q. Please let me know if `C#Cc1cc(C(=O)Nc2ccc(CNCCN3CCOCC3)c(C(F)(F)F)c2)ccc1C` shows growth below 30%.
A. class 0

Q. Please let me know if `O=C(CCCCCCNC(=O)C(O)(O)C(F)(F)F)Nc1ccc(Cl)cc1` shows growth below 30%.
A. class 1

Q. Please let me know if `Cc1ccc2c(n1)C(=O)C(Cl)=C(Nc1ccccc1C(=O)OC(C)(C)C)C2=O` shows growth below 30%.
A. class 1

Q. Please let me know if `CCCCSC1=C(Cl)CN(c2ccc(Cl)cc2)C1=O` shows growth below 30%.
A. class 0

Q. Please let me know if `CC(=C(c1ccc(OCCN(C)C)cc1)c1ccc(OCCN(C)C)cc1)c1ccc(Cl)cc1` shows growth below 30%.
A. class 1

Q. Please let me know if `C=C1CCc2nc(SCC(=O)O)ccc2N1` shows growth below 30%.
A. class 0

----------
Test system: RXF 393 renal
Assay: NCI-60 one-dose screen, 48 h
Settings: 10 µM unless noted
About 83,000 compounds went through this panel and 20% of them were active in at least one assay; those are over-represented in the sample as a whole. Active and inactive are the calls of the source. Rule for the calls: active = growth percent below 10; inactive = the rest.
Use one of these outcomes when replying: class 1 = active, class 0 = inactive

Q. Assay result, entry `Cc1ccc(-c2cc3nc(C(Cl)Cl)nc(-c4ccc(S(=O)(=O)N(C)C)cc4)n3n2)cc1` — outcome?
A. class 0

Q. Assay result, entry `CN1CCN(CCCCCC(=O)Nc2nc(-c3cccc(NS(=O)(=O)c4cccc5c(N(C)C)cccc45)c3)cs2)CC1` — outcome?
A. class 0

Q. Assay result, entry `COc1ccc(OC)c(NC(=O)CCCCCCNC(=O)C(O)(O)C(F)(F)F)c1` — outcome?
A. class 1

Q. Assay result, entry `O=C(COc1ccc(/C=C2\C(=O)Nc3ccc(F)cc32)cc1)Nc1ccccc1` — outcome?
A. class 0

Q. Assay result, entry `COc1ccc2c(c1)c(-c1nn3cc(-c4ccncc4)nc3s1)cn2C` — outcome?
A. class 0

Q. Assay result, entry `Cc1ccc(S(=O)(=O)c2nc(-c3ccc(F)cc3)oc2S(C)(=O)=O)cc1` — outcome?
A. class 0
